- TARGET: p38 MAP kinase (Homo sapiens, UniProt Q16539)
- Construct: made in house; host or cells: E. coli
- Sequence (Q16539 whole entry): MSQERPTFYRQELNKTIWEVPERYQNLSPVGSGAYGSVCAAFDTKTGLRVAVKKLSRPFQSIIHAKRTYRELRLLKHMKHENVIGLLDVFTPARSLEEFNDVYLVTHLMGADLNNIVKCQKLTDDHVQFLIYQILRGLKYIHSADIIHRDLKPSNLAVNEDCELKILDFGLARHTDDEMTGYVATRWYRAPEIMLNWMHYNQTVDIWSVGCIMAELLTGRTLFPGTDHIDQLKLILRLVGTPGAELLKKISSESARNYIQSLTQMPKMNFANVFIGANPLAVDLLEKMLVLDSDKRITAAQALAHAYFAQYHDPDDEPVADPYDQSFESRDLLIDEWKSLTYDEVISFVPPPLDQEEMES
- ASSAY NAME: P38 MAP kinase binding assay (competition with fluorescent probe SKF 86002)
- CONDITION CONTEXT: time-dependent if the IC50 values decrease with the reaction time (more than two-fold in four hours)
REPORTED ENDPOINT: Time-dependent

>>> print(df.to_string())
                                   compound  observed_measurement
0  CC(C)(C)c1cc(NC(=O)Nc2cccc3ccccc23)n(-c2ccc(CN)cc2)n1                    No
1  CC1(C(=O)O)CC2(C)CC(C)(C1)C(=O)N(Cc1cccc(-n3nc(C(C)(C)C)cc3NC(=O)Nc3ccc(Cl)cc3)c1)C2=O (stereo not shown)                    No
2  CC(C)(C)c1cc(NC(=O)Nc2cccc3ccccc23)n(-c2cccc(CC(=O)N3CCOCC3)c2)n1                   Yes
3  CC1(C(=O)O)CC2(C)CC(C)(C1)C(=O)N(Cc1cccc(-n3nc(C(C)(C)C)cc3NC(=O)Nc3cccc4ccccc34)c1)C2=O (stereo not shown)                    No
